experiment: The drug is tested on Collinsella intestinalis strain: DSM13280 for biotransformation. The drug concentrations were measured before and after a 12-h incubation by liquid-chromatography-coupled mass spectrometry (LC–MS); settings: 2 µM
MEASURE_NAME: Bacterial Biotransformation

Some solved entries appear below for comparison.
COMPOUND	VALUE
CCC(COC(=O)c1cc(OC)c(OC)c(OC)c1)(c1ccccc1)N(C)C.O=C(O)/C=C\C(=O)O (configuration not stated)	Compound metabolized
COC1=CC(=O)C[C@@H](C)[C@]12Oc1c(Cl)c(OC)cc(OC)c1C2=O	Compound NOT metabolized
CN1CCN(C2=Nc3ccccc3Oc3ccc(Cl)cc32)CC1.O=C(O)CCC(=O)O [LOXAPINE SUCCINATE]	Compound NOT metabolized
COc1ccc2[nH]c([S+]([O-])Cc3ncc(C)c(OC)c3C)nc2n1 (configuration not stated)	Compound metabolized
CN(C)C(=O)Oc1cc(OC(=O)N(C)C)cc(C(O)CNC(C)(C)C)c1 (configuration not stated)	Compound NOT metabolized

Proceeding to the next compound to report its Bacterial Biotransformation.
Noted for COc1ccc(/C=C/C(=O)Nc2ccccc2C(=O)O)cc1OC : its Bacterial Biotransformation reads Compound NOT metabolized

Attribution: ChEMBL document CHEMBL5303573
